The compounds listed here are annotated with their melting point.
OBSERVATION_TYPE: melting point

INSERT INTO measurements (smi, result) VALUES
  ('CCOC(=O)CCc1cccc(-c2c(CC(=O)Nc3ccc(F)cc3C(F)(F)F)c(=O)oc3cc(Cl)ccc23)c1', '164 to 165 °C'),
  ('O=C(O)/C=C/c1cccc(-c2c(CC(=O)Nc3ccc(F)cc3C(F)(F)F)c(=O)oc3cc(Cl)c(CN4CCN(c5ccccc5)CC4)cc23)c1', '238 to 240 °C'),
  ('Cc1cc2c(-c3cccc(CCC(=O)O)c3)c(CC(=O)Nc3ccccc3C(F)(F)F)c(=O)oc2cc1Cl', '150 °C (dec.)'),
  ('O=C(O)CCc1cccc(-c2c(CC(=O)Nc3ccc(F)cc3C(F)(F)F)c(=O)oc3cc(Cl)ccc23)c1', '211 to 212 °C'),
  ('O=C(O)/C=C/c1cccc(-c2c(CC(=O)Nc3ccc(Cl)cc3C(F)(F)F)c(=O)oc3cc(Cl)c(CN4CCN(c5ccccc5)CC4)cc23)c1', '239 to 241 °C'),
  ('Cc1cc2c(-c3cccc(Cc4noc(=O)[nH]4)c3)c(CC(=O)Nc3ccccc3C(F)(F)F)c(=O)oc2cc1Cl', '295 °C (dec.)');
